Overview of recorded pIC50 for various molecules
Molecular target: σ1 receptors (Homo sapiens, UniProt Q99720)
Construct: endogenous in cells
Sequence (Q99720 whole entry): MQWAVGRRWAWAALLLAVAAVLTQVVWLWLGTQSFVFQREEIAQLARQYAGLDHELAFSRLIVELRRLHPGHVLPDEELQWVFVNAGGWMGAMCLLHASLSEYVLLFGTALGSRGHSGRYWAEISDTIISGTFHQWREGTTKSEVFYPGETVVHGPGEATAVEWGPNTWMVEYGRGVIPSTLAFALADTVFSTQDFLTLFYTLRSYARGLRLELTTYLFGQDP
Assay: σ1 receptor binding assay ((+)-[3H]pentazocine displacement, HEK-293 cell membranes)
Conditions: 10 nM (+)-[3H]-pentazocine, 120 min at 37° C.
pIC50: −log10 of the molar value. Counter-ions that a name gives are not always drawn.

query: Please indicate pIC50 recorded for Fc1ccc(OCCN2CCN(CCOc3ccc(F)cc3)CC2)cc1
result: > 6.15

query: Entry Fc1ccccc1OCCN1CCN(CCOc2ccccc2F)CC1 [Example 1, dihydrochloride] needs its pIC50 filled in; supply it.
result: > 6.15

Values were extracted from patent US20090221607A1.
